Test system: hCoV-229E
Experiment: hCoV-229E CPE assay
Type: cell-based
Conditions: Human coronavirus 229E, 72 h
measure: IC50 (nM)

[
  {
    "molecule": "CCC(CC)COC(=O)[C@H](C)N[P@](=O)(OC[C@H]1O[C@@](C#N)(c2ccc3c(N)ncnn23)[C@H](O)[C@@H]1O)Oc1ccccc1 [Remdesivir]",
    "endpoint_result": 23.1
  }
]

###

Assay: Cytotoxicity in parallel with OC43 CPE assay, without virus
Conditions: human

[
  {
    "compound": "CCC(CC)COC(=O)[C@H](C)N[P@](=O)(OC[C@H]1O[C@@](C#N)(c2ccc3c(N)ncnn23)[C@H](O)[C@@H]1O)Oc1ccccc1 [Remdesivir]",
    "unit_string": "%",
    "viability at 7 days, 0.137 µM": 102
  }
]
